Here the recorded melting point is given for each entry.

Below: 3 molecules and their reported melting point.
CCOC(=O)c1cc2c(C)ccc(OCCO)c2[nH]1
166 to 167 °C
COC(=O)c1ccc(-c2nc(-c3ccc(Cl)s3)co2)cc1
189 to 190 °C
O=C(NC(Cc1ccc(C(F)(F)F)cc1)C(=O)c1ccc(F)cc1)c1cc(=O)cco1 (stereo unspecified)
115 to 116 °C

Query :: What value of measured melting point is listed for COc1ccc(C2(c3ccc(O)c(C)c3)c3ccccc3-c3ccccc32)cc1 ?
Result :: 186 to 188 °C

Query :: Now the molecule Nc1cccnc1-c1ccc2[nH]nc(Nc3nccs3)c2c1
Result :: 282 to 283 °C

Query :: Param item: Clc1cc2c(cc1Cn1c(C3OCCO3)nc(Br)c1Br)OCO2
Result :: 188 °C
